Give IC50 for every item shown.
target: HCV NS5B (Hepatitis C virus genotype 1b, UniProt Q9WMX2); construct: The protein was expressed with an 18 amino acid C-terminal truncation to enhance the solubility; made in house; host or cells: E. coli BL21(DE3); assay: Modified HCV NS5B RdRp enzyme assay (preincubation protocol); format: biochemical; conditions: class symbol
Sequence (Q9WMX2 2420-2992): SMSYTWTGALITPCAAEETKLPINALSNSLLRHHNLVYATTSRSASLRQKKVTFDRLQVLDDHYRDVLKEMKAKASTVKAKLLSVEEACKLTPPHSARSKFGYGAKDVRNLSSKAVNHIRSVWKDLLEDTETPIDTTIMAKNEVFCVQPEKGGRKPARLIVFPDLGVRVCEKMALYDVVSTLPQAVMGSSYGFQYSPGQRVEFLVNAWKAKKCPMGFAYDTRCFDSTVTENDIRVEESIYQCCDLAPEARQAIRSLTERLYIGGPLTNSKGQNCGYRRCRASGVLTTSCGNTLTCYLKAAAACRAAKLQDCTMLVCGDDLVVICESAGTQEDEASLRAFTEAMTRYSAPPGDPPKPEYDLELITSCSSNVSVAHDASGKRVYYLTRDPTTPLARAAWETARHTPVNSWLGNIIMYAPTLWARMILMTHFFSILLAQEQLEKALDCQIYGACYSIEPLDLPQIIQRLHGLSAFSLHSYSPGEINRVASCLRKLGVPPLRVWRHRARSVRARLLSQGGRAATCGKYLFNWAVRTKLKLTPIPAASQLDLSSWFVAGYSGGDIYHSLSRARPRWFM

Item "COc1ccc2c(c1)C=C(c1c(C(=O)N3C[C@@H](C)O[C@@H](C)C3)cnn1C1CCOCC1)Cn1c-2c(C2CCCCC2)c2ccc(C(=O)NS(=O)(=O)CC(C)C)cc21" has what recorded IC50?
1.7 to 500 nM

Item "COc1ccc2c(c1)C=C(c1c(C(=O)N3C[C@@H](C)N(C)[C@@H](C)C3)cnn1C1CC1)Cn1c-2c(C2CCCCC2)c2ccc(C(=O)NS(=O)(=O)C(C)C)cc21" has what recorded IC50?
1.7 to 500 nM

Item COc1ccc2c(c1)C=C(c1c(C(=O)N3C[C@@H](C)O[C@@H](C)C3)cnn1C1CCC1)Cn1c-2c(C2CCCCC2)c2ccc(C(=O)NS(=O)(=O)N(C)C)cc21 [drawing 259] has what recorded IC50?
1.7 to 500 nM

Item "COc1ccc2c(c1)C=C(c1c(C(=O)N3C[C@@H]4C[C@H]3CN4C)cnn1C1CCC1)Cn1c-2c(C2CCCCC2)c2ccc(C(=O)NS(=O)(=O)C(C)C)cc21" has what recorded IC50?
1.7 to 500 nM

Item "COc1ccc2c(c1)C=C(c1c(C(=O)N3CCOCC3)cnn1C1CCN(C)CC1)Cn1c-2c(C2CCCCC2)c2ccc(C(=O)NS(=O)(=O)C(C)C)cc21" has what recorded IC50?
1.7 to 500 nM

Item "COc1ccc2c(c1)C=C(c1c(C(=O)N3CCOCC3)ncn1C1CC1)Cn1c-2c(C2CCCCC2)c2ccc(C(=O)NS(=O)(=O)C(C)C)cc21" has what recorded IC50?
1.7 to 500 nM

Item "COc1ccc2c(c1)C=C(c1c(C(=O)N3C[C@@H](C)O[C@@H](C)C3)cnn1-c1ccccn1)Cn1c-2c(C2CCCCC2)c2ccc(C(=O)NS(=O)(=O)C(C)C)cc21" has what recorded IC50?
1.7 to 500 nM

Item "COc1ccc2c(c1)C=C(c1c(C(=O)N3C4CCC3CN(C)C4)cnn1C1CCOCC1)Cn1c-2c(C2CCCCC2)c2ccc(C(=O)NS(=O)(=O)CC(C)C)cc21" has what recorded IC50?
1.7 to 500 nM

Item "CCOC(=O)c1cnn(C2CCC2)c1C1=Cc2cc(OC)ccc2-c2c(C3CCCCC3)c3ccc(C(=O)OC(C)(C)C)cc3n2C1" has what recorded IC50?
> 500 nM

Item "COc1ccc2c(c1)C=C(c1c(C(=O)N3CCN(C)CC3)c(C)nn1C1CCC1)Cn1c-2c(C2CCCCC2)c2ccc(C(=O)NS(=O)(=O)C(C)C)cc21" has what recorded IC50?
1.7 to 500 nM

Item "COc1ccc2c(c1)C=C(c1c(C(=O)N3C[C@@H](C)O[C@@H](C)C3)c(C)nn1C1CCC1)Cn1c-2c(C2CCCCC2)c2ccc(C(=O)NS(=O)(=O)C(C)C)cc21" has what recorded IC50?
1.7 to 500 nM

Item "CCOC(=O)c1cnn(C2CCOCC2)c1C1=Cc2cc(OC)ccc2-c2c(C3CCCCC3)c3ccc(C(=O)NS(=O)(=O)CC(C)C)cc3n2C1" has what recorded IC50?
1.7 to 500 nM

meta.source: patent US8133884B2
